system: RPMI-8226 leukemia; assay: NCI-60 one-dose screen, 48 h (100 = growth as untreated, 0 = no growth, -100 = all killed); conditions: 10 µM unless noted
About 83,000 compounds went through this panel and 20% of them were active in at least one assay; those are over-represented in the sample as a whole.
Listed below: growth values for each entry.
Unit % implied. Number only.

// below: answered compounds
## Input Data request, read-out growth, for CCCCCCCCCCCCCCCc1ccc(N)c(OC2OC(CO)C(O)C(O)C2O)c1 (stereo not given)
## Output 28.7

## Input Data request, read-out growth, for CCCCNc1ccc(Nc2ccccc2)cc1
## Output -25

## Input Data request, read-out growth, for Fc1ccc([I+]c2ccc(F)cc2)cc1
## Output 41.7

Further cases:
## Input Data request, read-out growth, for NN1CCOC(c2ccccc2)C1 (stereo not given)
## Output 97.8

## Input Data request, read-out growth, for CC1=C/C(O)CC(=O)Cc2nc(co2)C(=O)N2CCC=C2C(=O)OC(C(C)C)C(C)/C=C\C(=O)NC/C=C\1 (stereo not given)
## Output 60.7

## Input Data request, read-out growth, for OC1COC(OCc2ccccc2)C(O)C1O (stereo not given)
## Output 103

## Input Data request, read-out growth, for CCCCOC(=O)/C=C\C(=O)NC(N)=O
## Output 39.5

## Input Data request, read-out growth, for OCCN1CCCCCCC1
## Output 108

## Input Data request, read-out growth, for Nc1ccc2c(O)cc(S(=O)(=O)O)cc2c1
## Output 85

---

test system: A498 renal; test: NCI-60 one-dose screen, 48 h (100 = growth as untreated, 0 = no growth, -100 = all killed); settings: 10 µM unless noted
About 83,000 compounds went through this panel and 20% of them were active in at least one assay; those are over-represented in the sample as a whole.
We use 90% as the dividing line for growth: on or above the line is MET, below is NOT MET.

## Input Decide: is the reported value of growth for C#CCOC(=O)Nc1ccccc1 equal to or greater than 90%?
## Output NOT MET

Further cases:
## Input Decide: is the reported value of growth for O=CN1CCCCC1 equal to or greater than 90%?
## Output NOT MET

## Input Decide: is the reported value of growth for COc1cc(C(O)C2C(=O)OCC2C2(c3ccc4c(c3)OCO4)SCCCS2)cc(OC)c1OC (stereo not given) equal to or greater than 90%?
## Output NOT MET

## Input Decide: is the reported value of growth for NN1CCOC(c2ccccc2)C1 (stereo not given) equal to or greater than 90%?
## Output MET

## Input Decide: is the reported value of growth for CC1CCC(C(C)C)C(NNC(N)=O)C1 (stereo not given) equal to or greater than 90%?
## Output MET

## Input Decide: is the reported value of growth for C/C(=C\c1ccccc1)c1ccccn1 equal to or greater than 90%?
## Output MET

## Input Decide: is the reported value of growth for CN(C)CC1CCCCCC(CN(C)C)C1=O (stereo not given) equal to or greater than 90%?
## Output MET

## Input Decide: is the reported value of growth for c1ccc(CNCCNCc2ccccc2)cc1 equal to or greater than 90%?
## Output MET

## Input Decide: is the reported value of growth for Brc1ccc(SSc2ccc(Br)cc2)cc1 equal to or greater than 90%?
## Output NOT MET

## Input Decide: is the reported value of growth for O=C(/C=C/c1ccccc1)c1ccccc1 equal to or greater than 90%?
## Output MET

## Input Decide: is the reported value of growth for OC1COC(OCc2ccccc2)C(O)C1O (stereo not given) equal to or greater than 90%?
## Output MET

## Input Decide: is the reported value of growth for CC(C)(O)C(=O)O equal to or greater than 90%?
## Output MET

## Input Decide: is the reported value of growth for O=C(O)CCCl equal to or greater than 90%?
## Output MET

## Input Decide: is the reported value of growth for CC(=O)NCC(=O)c1ccc([N+](=O)[O-])cc1 equal to or greater than 90%?
## Output NOT MET

---

system: OVCAR-8 ovarian; test: NCI-60 one-dose screen, 48 h (100 = growth as untreated, 0 = no growth, -100 = all killed); details: 10 µM unless noted
This is part of a sample that, as a whole, favours compounds with a hit. Of some 83,000 tested, about 20% had one in any assay.
test_readout: growth (%)
Unit % implied. Number only.

## Input Data request, read-out growth, for Nc1cc(N)c(N)cc1N
## Output 63.3

## Input Data request, read-out growth, for C/C(=C\c1ccccc1)c1ccccn1
## Output 116

## Input Data request, read-out growth, for NN1CCOC(c2ccccc2)C1 (configuration not stated)
## Output 103

## Input Data request, read-out growth, for O=[N+]([O-])c1cccc(SSc2cccc([N+](=O)[O-])c2)c1
## Output 100

## Input Data request, read-out growth, for CC1(C)COC(=S)N1
## Output 103

Further cases:
## Input Data request, read-out growth, for Brc1ccc(SSc2ccc(Br)cc2)cc1
## Output 83.9

## Input Data request, read-out growth, for Cc1cc(-c2cc(C)c(O)c(C)c2)cc(C)c1O
## Output 95

---

system: NCI-H522 lung; assay: NCI-60 one-dose screen, 48 h; conditions: 10 µM
This is part of a sample that, as a whole, favours compounds with a hit. Of some 83,000 tested, about 20% had one in any assay. Calls of active or inactive are those of the source. The calls were made as follows: active = growth percent below 10; inactive = the rest.
Form entry, call: pick from active, inactive

Worked examples, 6 molecules total:
## Input Given Brc1ccc(SSc2ccc(Br)cc2)cc1 , state the outcome it received in this test.
## Output inactive

## Input Given Cc1cc2ccccc2cn1 , state the outcome it received in this test.
## Output inactive

## Input Given Fc1ccc([I+]c2ccc(F)cc2)cc1 , state the outcome it received in this test.
## Output inactive

## Input Given O=C(O)CCCl , state the outcome it received in this test.
## Output inactive

## Input Given O=c1n(CC2CO2)c(=O)n(CC2CO2)c(=O)n1CC1CO1 (stereo not given) , state the outcome it received in this test.
## Output inactive

## Input Given Nc1cc(N)c(N)cc1N , state the outcome it received in this test.
## Output active

Further cases:
## Input Given C/C(=C\c1ccccc1)c1ccccn1 , state the outcome it received in this test.
## Output inactive

## Input Given COc1ccc(C(=O)CC(c2ccccc2)C(C#N)c2ccccc2)cc1 (stereo not given) , state the outcome it received in this test.
## Output inactive

## Input Given NN1CCOC(c2ccccc2)C1 (stereo not given) , state the outcome it received in this test.
## Output inactive

## Input Given CC(=O)NCC(=O)c1ccc([N+](=O)[O-])cc1 , state the outcome it received in this test.
## Output inactive

## Input Given CCCCOC(=O)/C=C\C(=O)NC(N)=O , state the outcome it received in this test.
## Output active

## Input Given c1ccc2c(c1)OC1OC2Oc2ccccc21 , state the outcome it received in this test.
## Output inactive

---

Listed below: growth values for each entry.
test system: OVCAR-8 ovarian; experiment: NCI-60 one-dose screen, 48 h (100 = growth as untreated, 0 = no growth, -100 = all killed); conditions: 10 µM unless noted
About 83,000 compounds went through this panel and 20% of them were active in at least one assay; those are over-represented in the sample as a whole.
Unit % implied. Number only.

// below: answered compounds
## Input Data request, read-out growth, for Oc1ccc(Cc2ccccc2Cl)c(O)c1
## Output 104

## Input Data request, read-out growth, for NC(=O)NCCCC(N)C(=O)O (stereo not given)
## Output 98

## Input Data request, read-out growth, for Cc1ccc(S(=O)(=O)c2ccccc2)cc1
## Output 55.1

## Input Data request, read-out growth, for O=C(Cc1ccccc1)c1ccc(O)c(Cl)c1
## Output 43.4

## Input Data request, read-out growth, for CCc1cc(C)cc(O)c1
## Output 105

## Input Data request, read-out growth, for CCCCNc1ccc(Nc2ccccc2)cc1
## Output 74.2

Proceeding to the next compound to report its growth.
## Input Data request, read-out growth, for O=CN1CCCCC1
## Output 117

---

test system: SF-268 CNS; assay: NCI-60 one-dose screen, 48 h (100 = growth as untreated, 0 = no growth, -100 = all killed); details: 10 µM unless noted
About 83,000 compounds went through this panel and 20% of them were active in at least one assay; those are over-represented in the sample as a whole.
test_readout: growth (%)
Unit % implied. Number only.

// below: answered molecules
## Input Data request, read-out growth, for CC1CCC2(OC1)OC1CC3C4CC=C5CC(O)CCC5(C)C4CCC3(C)C1C2C (stereo not drawn)
## Output 89.6

## Input Data request, read-out growth, for CN(C)CC1CCCCCC(CN(C)C)C1=O (stereo not drawn)
## Output 97

Proceeding to the next molecule to report its growth.
## Input Data request, read-out growth, for NC1CCC(C(=O)O)CC1 (stereo not drawn)
## Output 105

// data source = PubChem BioAssay (NCI)
